Where do these numbers come from? They come from paper PMC5312682.

- SYSTEM UNDER TEST: CNS-relevant targets, including opioid, adrenergic, nACR, mAChR, and NMDA receptors, neurotransmitter transporters and ion channels
- ASSAY METHOD TEXT: Off-target binding, CNS-relevant targets
- CONDITION DETAILS: read-out: off-target affinity Ki; most CNS-relevant targets; Supplemental table 2
pKi: −log10 of the molar value.
MEASURED ENDPOINT: pKi

### Prompt Recorded pKi for CN1CCN(c2ccc3c(c2)[C@H]2C[C@@H]3CCN2C(=O)OCc2ccccc2)CC1 , please?
### Response 5.00 to 6.30
